Cited source: patent US9611249B2

biological target: c-Met kinase (h) (Homo sapiens (Human), UniProt P08581); assay: Kinase selectivity panel: c-Met kinase (h); assay type: biochemical; details: 10 μM in duplicate, read-out: % inhibition of control values
Sequence (P08581 25-1390): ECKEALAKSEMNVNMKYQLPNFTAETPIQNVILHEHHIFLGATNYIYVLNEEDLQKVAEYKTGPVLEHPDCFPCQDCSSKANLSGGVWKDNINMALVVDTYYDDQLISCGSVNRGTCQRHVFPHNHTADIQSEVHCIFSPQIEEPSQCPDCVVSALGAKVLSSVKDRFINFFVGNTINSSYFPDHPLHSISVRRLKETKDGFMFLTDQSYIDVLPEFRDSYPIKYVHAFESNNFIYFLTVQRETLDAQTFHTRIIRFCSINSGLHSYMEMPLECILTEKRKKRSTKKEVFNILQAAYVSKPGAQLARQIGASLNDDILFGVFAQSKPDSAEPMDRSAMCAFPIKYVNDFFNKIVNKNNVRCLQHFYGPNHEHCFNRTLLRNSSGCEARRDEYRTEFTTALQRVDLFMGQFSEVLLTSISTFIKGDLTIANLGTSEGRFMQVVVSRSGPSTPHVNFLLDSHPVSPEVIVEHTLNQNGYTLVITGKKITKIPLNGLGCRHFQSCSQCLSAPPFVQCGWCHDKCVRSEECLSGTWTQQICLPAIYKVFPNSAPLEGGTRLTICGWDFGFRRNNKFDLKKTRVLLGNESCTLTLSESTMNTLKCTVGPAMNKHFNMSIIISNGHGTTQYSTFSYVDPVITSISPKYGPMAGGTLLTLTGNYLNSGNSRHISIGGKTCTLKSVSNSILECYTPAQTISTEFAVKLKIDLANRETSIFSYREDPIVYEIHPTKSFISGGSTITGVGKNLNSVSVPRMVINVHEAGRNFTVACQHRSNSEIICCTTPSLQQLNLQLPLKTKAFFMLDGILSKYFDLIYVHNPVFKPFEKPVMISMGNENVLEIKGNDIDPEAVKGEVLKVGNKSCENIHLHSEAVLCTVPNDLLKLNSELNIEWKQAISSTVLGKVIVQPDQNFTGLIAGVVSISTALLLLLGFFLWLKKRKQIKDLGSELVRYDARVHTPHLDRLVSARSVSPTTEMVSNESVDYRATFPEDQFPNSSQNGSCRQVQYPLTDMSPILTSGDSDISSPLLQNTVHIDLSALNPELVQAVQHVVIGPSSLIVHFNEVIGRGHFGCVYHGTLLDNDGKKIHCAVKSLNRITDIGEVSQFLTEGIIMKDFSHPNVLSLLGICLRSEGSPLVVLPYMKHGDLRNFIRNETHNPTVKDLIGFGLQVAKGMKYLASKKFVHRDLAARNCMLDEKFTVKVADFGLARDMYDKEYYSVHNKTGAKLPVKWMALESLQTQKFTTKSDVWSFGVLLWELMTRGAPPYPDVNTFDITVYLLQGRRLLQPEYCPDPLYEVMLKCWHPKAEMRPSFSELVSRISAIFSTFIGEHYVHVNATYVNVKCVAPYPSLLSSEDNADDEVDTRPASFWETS
assay_readout: inhibition at 10 µM (%)

# annotated cases, reported inhibition at 10 µM shown
COc1ccc2[nH]nc(C(=O)NCC3CCN(CCC(=O)O)CC3)c2c1 : 0
COCCN1CCC(CNC(=O)c2n[nH]c3ccc(-c4cccc(F)c4F)cc23)CC1 : 7

A = COc1ccc2[nH]nc(C(=O)NCC3CCN(CC(=O)O)CC3)c2c1
B = COCCN1CCC(CNC(=O)c2n[nH]c3ccc(OC)cc23)CC1
When the recorded inhibition at 10 µM values are compared, which is smaller: that of A or that of B ? Indicate which entry you chose by stating its label.
B
